- PROCEDURE DETAILS: Half life of the compound in MeOH at 23 degC in presence of NaHCO3
- Assay type: physicochemical
- EXPERIMENTAL SETUP: MeOH with NaHCO3
READOUT: half-life (h)
Give the number; h is assumed, so skip it.

// half-life value for CC(C)(C)OC(=O)N1C[C@@H](CCl)c2c1cc1c3c(cccc23)C(=O)NO1 : 70

---

- PROCEDURE DETAILS: Drug degradation in THF at 254 nM after 2 hrs by LC-MS analysis in presence of NaHCO3 and BnNH2
- Assay type: physicochemical
- EXPERIMENTAL SETUP: THF with NaHCO3 and BnNH2; read-out: Drug degradation
READOUT: degraded at 2 h

# degraded at 2 h (compound: CC(C)(C)OC(=O)N1C[C@@H](CCl)c2c1cc1c3c(cccc23)C(=O)NO1 ) is 2%
